assay: Pharmacokinetics of single oral doses of nirogacestat dihydrobromide; format: in vivo, human; conditions: human, in vivo, po, 150 mg, COHORT 1: 150 mg (3 × 50 mg), Period 1, read-out: AUCinf, Median
Where a name gives a salt, the structure may show the parent alone.
READOUT NAME: AUC(0-inf) (ng·h/mL)
Hi! Could you send only the number? It should be in ng·h/mL, unit omitted.

Query (molecule): CCC[C@H](N[C@H]1CCc2cc(F)cc(F)c2C1)C(=O)Nc1cn(C(C)(C)CNCC(C)(C)C)cn1 [nirogacestat dihydrobromide] ; field requested: AUC(0-inf)
2640

----------
test: Pharmacokinetics of single oral doses of nirogacestat dihydrobromide; assay type: in vivo, human; details: human, in vivo, po, 150 mg, COHORT 1: 150 mg (1 × 150 mg), Period 2, read-out: Cmax, Geometric Mean
Where a name gives a salt, the structure may show the parent alone.
READOUT NAME: Cmax (ng/mL)
Hi! Could you send only the number? It should be in ng/mL, unit omitted.

Query (compound): CCC[C@H](N[C@H]1CCc2cc(F)cc(F)c2C1)C(=O)Nc1cn(C(C)(C)CNCC(C)(C)C)cn1 [nirogacestat dihydrobromide] ; field requested: Cmax
686
